- Settings: buffer; pH 7.4; 200.0 µM
compounds and their reported solubility kinetic

Compound | solubility kinetic
CC(Sc1ccc(S(=O)(=O)N2CCCC2)cn1)C(N)=O (stereo unspecified) | > 47.3 µg/mL
COc1ccc(C(C)NC(=O)Cc2cccs2)cc1OC (stereo unspecified) | > 45.8 µg/mL
CCN1CCN(C(=O)CSc2nc(N)cc(N)n2)CC1 | > 44.5 µg/mL
CCCNC(=S)Nc1ccc(F)cc1F | > 34.5 µg/mL
CCCCOC(=O)c1ccc(NC(=O)C(=O)NCc2ccco2)cc1 | < 0.4 µg/mL
Cl.c1ccc2c(N3CCNCC3)cccc2c1 | > 37.3 µg/mL
CCc1cccc(C)c1NS(=O)(=O)Cc1ccccc1 | > 43.4 µg/mL
Cc1cccc(NC(=O)c2cccnc2Oc2ccccc2)c1C(=O)O | > 52.3 µg/mL
Cc1cc(F)ccc1NC(=O)Cn1c(C)csc1=O | > 42 µg/mL
Cl.Fc1ccc(OCCCCN2CCOCC2)cc1 | > 43.5 µg/mL
O=C(CN1C(=O)C(=O)N(Cc2ccco2)C1=O)Nc1ccccc1 | > 49.1 µg/mL

----------
- Settings: buffer; pH 7.4; 200.0 µM
Experimental readout: solubility kinetic

Compound | Readout value
CC(=O)Nc1ccc(C(=O)N2CCc3cc4c(cc3C2C)OCCCO4)cc1 (centres undefined) | > 57.1 µg/mL
O=C(/C=C/c1cccs1)NC1CC1 | > 29 µg/mL
COc1cccc(N(CC(=O)N2CCCC2)S(C)(=O)=O)c1 | > 46.9 µg/mL
CCC1(C)Cc2ccccc2-c2nc(NCCCO)n(C)c(=O)c21 (centres undefined) | > 49.1 µg/mL

----------
- Settings: buffer; pH 7.4; 200.0 µM
Experimental readout: solubility kinetic

Compound | Readout value
O=S(=O)(NCC1CCCO1)c1ccc(Cl)nc1 (configuration not stated) | > 0.0415 mg/mL
O=C(COC(=O)c1ccc(Cl)nc1)NC1CCCCCC1 | > 0.0466 mg/mL
CCOc1ccc(C(=O)C(C)OC(=O)c2cnc(C)cn2)cc1 (configuration not stated) | > 0.0472 mg/mL
O=C(Cc1ccc(F)cc1)NC1CCCCCC1 | > 0.0374 mg/mL
CCOC(=O)c1cnc(SCC#N)nc1N | > 0.0357 mg/mL
O=C(O)CSc1ncnc2sc(-c3ccccc3)cc12 | > 0.0454 mg/mL
CC(=O)c1ccc(NC(=O)[C@@]2(CC(=O)O)CC(/C=C/c3ccccc3)=NO2)cc1 | > 0.0589 mg/mL
O=Cc1c(C(=O)O)n(Cc2ccccc2Cl)c2ccccc12 | > 0.0471 mg/mL
O=S(=O)(Nc1ccccc1)c1cccc2nonc12 | > 0.0413 mg/mL
O=C(O)c1ccc2c(c1)C(=O)N(c1nccs1)C2=O | > 0.0411 mg/mL
CCCCCC1C/C(=N\O)C=C(C)C1C(=O)OC (configuration not stated) | > 0.038 mg/mL
C/C(CC(=O)Nc1cc(C)ccn1)=N\NC(=O)c1ccccc1C | > 0.0487 mg/mL
CSCCC(NC(=O)COc1ccccc1)C(=O)NCc1cccs1 (configuration not stated) | > 0.0568 mg/mL
CC12CC3CC(C)(C1)CC(C(=O)NCc1cccnc1)(C3)C2 | > 0.0448 mg/mL
CCOc1c(N2CCOCC2)c(=O)c1=O | > 0.0317 mg/mL
O=C(NCC(=O)N1CCN(Cc2ccccc2)CC1)c1cccs1 | > 0.0515 mg/mL
Cc1ccc2nc(SC(C)C(=O)NC3CCCC3)[nH]c2c1 (configuration not stated) | > 0.0455 mg/mL

----------
- Settings: buffer; pH 7.4; 200.0 µM

Molecule | solubility kinetic
O=c1cccc2n1CC1CNCC2C1 (centres undefined) | > 28.5 µg/mL
CCN(CC)S(=O)(=O)c1cc(NS(=O)(=O)c2cccs2)ccc1C | > 58.3 µg/mL
CCCCOc1cc(C(=O)NCCN(CC)CC)c2ccccc2n1 | > 51.5 µg/mL
COc1ccc(CC(=O)Nc2ccncc2Cl)cc1 | > 41.5 µg/mL

----------
molecules and their reported solubility kinetic
- Settings: buffer; pH 7.4; 200.0 µM
Experimental readout: solubility kinetic

Molecule | Experimental readout | Readout value
COCCNC(=O)c1oc2ccc3c(c2c1C)C(O)CC(C)(C)O3 (stereo unspecified) | solubility kinetic | > 50 µg/mL
Cc1csc(C(=O)O)c1NC(=O)c1ccc(F)cc1 | solubility kinetic | > 41.9 µg/mL
O=C(CNC(=O)c1ccco1)Nc1ccc2c(c1)OCCO2 | solubility kinetic | > 45.3 µg/mL
Cc1ccc(C(=O)N2CCN(c3ccccn3)CC2)cc1Cl | solubility kinetic | > 47.4 µg/mL
O=C(O)c1ccccc1CSc1nc2ccccc2[nH]1 | solubility kinetic | > 42.6 µg/mL
COC(=O)c1cccc(NC(=O)c2ccc3c(c2)C(=O)N(C(C)(C)C)C3=O)c1 | solubility kinetic | < 0.4 µg/mL
O=C(CCS(=O)(=O)c1ccc(F)cc1)N1CCOCC1 | solubility kinetic | > 45.2 µg/mL
COc1ccc(C(=O)O)cc1S(=O)(=O)N1CCN(Cc2ccc3c(c2)OCO3)CC1 | solubility kinetic | > 65.2 µg/mL
COS(=O)(=O)[O-].Cn1c(-c2ccc3ccccc3n2)[n+](C)c2ccccc21 | solubility kinetic | > 57.8 µg/mL
Cc1c(Cc2ccccc2)c(=O)n2c([nH]c3ccccc32)c1C#N | solubility kinetic | < 0.2 µg/mL
COc1ccccc1C1CCN(Cc2ccc(Cl)c(Cl)c2)CC1 | solubility kinetic | < 0.8 µg/mL
CCOC(=O)N1CCN(C(=O)c2ccc(S(=O)(=O)Nc3ccccc3)cc2)CC1 | solubility kinetic | > 62.6 µg/mL
Cc1cc(C)n(/C(=C/N(C)C)C(=O)c2ccccc2)n1 | solubility kinetic | > 40.4 µg/mL
COc1ccc(CCNC(=O)c2cnc(C)cn2)cc1 | solubility kinetic | > 40.7 µg/mL
O=C(CCNC(=O)c1ccccc1)OCC(=O)c1ccccc1 | solubility kinetic | > 46.7 µg/mL
Cc1nc(Cc2nnc(SCC(=O)N3CC(=O)Nc4ccccc43)o2)cs1 | solubility kinetic | > 60.2 µg/mL

----------
compounds and their reported solubility kinetic
- Settings: buffer; pH 7.4; 200.0 µM

Compound | solubility kinetic
CC(Cc1ccccc1)NC(=O)c1cc([N+](=O)[O-])ccc1Cl (centres undefined) | 10 µg/mL
Cc1ccc2[nH]cc(CCNC(=O)C3CCCO3)c2c1 (centres undefined) | > 40.9 µg/mL
CC1(C)CC(=O)C(=CN2CCOCC2)C(=O)C1 | > 35.6 µg/mL
Cn1c(-c2ccccn2)[n+](C)c2ccccc21.[Cl-] | > 39 µg/mL
O=C(O)CCC(=O)Nc1ccc(Oc2ncnc3cc(Cl)ccc23)nc1 | > 55.9 µg/mL
CCOP(=O)(c1ccc(N(C)C)cc1)C(O)c1ccccc1F (centres undefined) | > 50.6 µg/mL
O=C(NCC(O)c1ccccc1)Nc1cccs1 (centres undefined) | > 39.3 µg/mL
O=C(Nc1cc(Cl)ccc1N1CCOCC1)c1cccnc1Cl | 49.7 µg/mL
OC(CN1CCOCC1)Cn1c2ccccc2c2ccccc21 (centres undefined) | > 46.6 µg/mL

----------
- Settings: buffer; pH 7.4; 200.0 µM

Compound | solubility kinetic
CCN1CCN(C(=O)C2COc3ccccc3O2)CC1 (stereo not drawn) | > 41.5 µg/mL
O=C(N/N=C/c1ccccc1)C(O)c1ccccc1 (stereo not drawn) | > 38.1 µg/mL
CC(=O)Nc1ccc(S(=O)(=O)NC(C(=O)O)C(C)O)cc1 (stereo not drawn) | > 47.4 µg/mL
COc1ccccc1NC(=S)NC1CC2CCC1C2 (stereo not drawn) | > 41.5 µg/mL
O=C(CSc1ccc(Cl)cc1)NCc1ccncc1 | > 43.9 µg/mL
COc1ccc(N2Cc3ccc(OC)c(OC)c3C2=O)cc1 | > 44.9 µg/mL
CN1CCC(N(C)C(=O)Cc2ccccc2[N+](=O)[O-])CC1 | > 43.7 µg/mL
Cc1ncoc1C(=O)Nc1ncc([N+](=O)[O-])s1 | > 38.1 µg/mL
CC1CCc2ccccc2N1C(=N)N(C)C.Cl (stereo not drawn) | > 38.1 µg/mL
COc1ccccc1NS(=O)(=O)c1ccc(C)c(C(=O)N2CCN(c3ccc(O)cc3)CC2)c1.Cl | > 77.7 µg/mL
CSCCC(NC(=O)/C(=C/c1ccco1)NC(=O)c1ccco1)C(=O)O (stereo not drawn) | > 56.8 µg/mL
COC(=O)C1C(O)=C(C=Nc2ccccc2)C(=O)CC1(C)C (stereo not drawn) | > 45.2 µg/mL
C/C(=N\NC(=O)CCCNc1cccc(C)c1)c1ccncc1 | > 46.6 µg/mL
COC(=O)C(CC(=O)O)NCc1ccco1 (stereo not drawn) | > 34.1 µg/mL
CCOc1ccc(CNc2nc3ccccc3n2C)cc1 | > 42.2 µg/mL
O=C(NCc1ccncc1)Nc1cccc([N+](=O)[O-])c1 | > 40.8 µg/mL
O=C1CN(S(=O)(=O)c2ccccc2Cl)CCN1 | > 41.2 µg/mL
COc1ccc(NC(=O)c2cc(-c3ccccc3)on2)cc1OC | < 0.3 µg/mL
